FYI, the data here is from patent US20120014941A1.

- measured-target: T1, recombinant human Bv8 (PeproTech) (human, UniProt Q9HC23-2 28-108, biotinylated (Sulfo-NHS-LC-biotin) in the two competition ELISAs with coated antibody)
- T1 construct: Bought protein; also called HuBv8; prokineticin-2
- T1 sequence (looked up): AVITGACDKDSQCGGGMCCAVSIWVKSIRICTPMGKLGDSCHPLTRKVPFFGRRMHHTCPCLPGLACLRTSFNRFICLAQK
- assay-info: phage competition ELISA: Fab-displaying phage preincubated with serially diluted soluble human Bv8 (the concentration on the axis), unbound phage captured on plate-coated human Bv8, anti-M13-HRP; bound phage in %
property-measured: IC50 (read off the curve)

binder="h2G9.K4G1 variant CDR-H3 D95E (Fab, V domains shown) VH: EVQLVQSGAEVKKPGASVKVSCKASGYSFTDYDMHWVRQAPGQGLEWIGYISCYNGATTYNQKFKGRVTITVDKSTSTAYLELSSLRSEDTAVYYCAREGNYGEAYAMDYWGQGTLVTVSS VL: DIVMTQSPDSLAVSLGERATINCKASQSVDYDGDSYMNWYQQKPGQPPKLLIYAASNLESGVPDRFSGSGSGTDFTLTISSLQAEDVAVYYCQQINEDPFTFGQGTKVEIK" assay_result="~4 nM"
binder="h2G9.K4G1 variant CDR-L1 G29S (Fab, V domains shown) VH: EVQLVQSGAEVKKPGASVKVSCKASGYSFTDYDMHWVRQAPGQGLEWIGYISCYNGATTYNQKFKGRVTITVDKSTSTAYLELSSLRSEDTAVYYCARDGNYGEAYAMDYWGQGTLVTVSS VL: DIVMTQSPDSLAVSLGERATINCKASQSVDYDSDSYMNWYQQKPGQPPKLLIYAASNLESGVPDRFSGSGSGTDFTLTISSLQAEDVAVYYCQQINEDPFTFGQGTKVEIK" assay_result="~1 nM"
binder="h2G9.K4G1.Polish Fab (Fab, V domains shown, also called polished K4G1) VH: EVQLVQSGAEVKKPGASVKVSCKASGYSFTDYDMHWVRQAPGQGLEWIGYISSYSGATTYNQKFKGRVTITVDKSTSTAYLELSSLRSEDTAVYYCARDSNYGEAYAMDYWGQGTLVTVSS VL: DIVMTQSPDSLAVSLGERATINCKASQSVDYSGDSYMNWYQQKPGQPPKLLIYAASNLESGVPDRFSGSGSGTDFTLTISSLQAEDVAVYYCQQINEDPFTFGQGTKVEIK" assay_result="~0.2 nM"

Please turn your attention to the following entry.
Inquiry: Entry h2G9.K4G1.v55 Fab (Fab, V domains shown, Variable domains only; claims 8 and 9)) VH: EVQLVQSGAEVKKPGASVKVSCKASGYSFTDYDMHWVRQAPGQGLEWIGYISSYSGATTYNQKFKGRVTITVDKSTSTAYLELSSLRSEDTAVYYCARDSNYGEAYAMDYWGQGTLVTVSS VL: DIVMTQSPDSLAVSLGERATINCKASQSLDYYHYSYMNWYQQKPGQPPKLLIYAASNRESGVPDRFSGSGSGTDFTLTISSLQAEDVAVYYCQQINEDPFTFGQGTKVEIKR has what IC50 (read off the curve)?
Reply text: ~0.06 nM
